- Assay info: Oral bioavailability in ICR mouse at 40 mg/kg measured upto 24 hrs by LC-MS/MS analysis
- Assay type: ADME, organism-based
- Cond: in vivo
Endpoint: bioavailability

[
  {
    "Smiles str": "COc1ncc(-c2cc3c(N4CCOCC4)ncnc3s2)cc1NS(=O)(=O)c1ccc(F)cc1F",
    "bioavailability": "99.5%"
  }
]

Attention now turns to another entry.
Exam item: Return bioavailability (reported value) for this molecule: COc1ncc(-c2nc3c(N4CCOCC4)ncnc3s2)cc1NS(=O)(=O)c1ccc(F)cc1F
Marked response: 54.5%

---

- Test target: Phosphatidylinositol 4,5-bisphosphate 3-kinase catalytic subunit delta isoform (Homo sapiens, UniProt O00329)
- Sequence (O00329 whole entry): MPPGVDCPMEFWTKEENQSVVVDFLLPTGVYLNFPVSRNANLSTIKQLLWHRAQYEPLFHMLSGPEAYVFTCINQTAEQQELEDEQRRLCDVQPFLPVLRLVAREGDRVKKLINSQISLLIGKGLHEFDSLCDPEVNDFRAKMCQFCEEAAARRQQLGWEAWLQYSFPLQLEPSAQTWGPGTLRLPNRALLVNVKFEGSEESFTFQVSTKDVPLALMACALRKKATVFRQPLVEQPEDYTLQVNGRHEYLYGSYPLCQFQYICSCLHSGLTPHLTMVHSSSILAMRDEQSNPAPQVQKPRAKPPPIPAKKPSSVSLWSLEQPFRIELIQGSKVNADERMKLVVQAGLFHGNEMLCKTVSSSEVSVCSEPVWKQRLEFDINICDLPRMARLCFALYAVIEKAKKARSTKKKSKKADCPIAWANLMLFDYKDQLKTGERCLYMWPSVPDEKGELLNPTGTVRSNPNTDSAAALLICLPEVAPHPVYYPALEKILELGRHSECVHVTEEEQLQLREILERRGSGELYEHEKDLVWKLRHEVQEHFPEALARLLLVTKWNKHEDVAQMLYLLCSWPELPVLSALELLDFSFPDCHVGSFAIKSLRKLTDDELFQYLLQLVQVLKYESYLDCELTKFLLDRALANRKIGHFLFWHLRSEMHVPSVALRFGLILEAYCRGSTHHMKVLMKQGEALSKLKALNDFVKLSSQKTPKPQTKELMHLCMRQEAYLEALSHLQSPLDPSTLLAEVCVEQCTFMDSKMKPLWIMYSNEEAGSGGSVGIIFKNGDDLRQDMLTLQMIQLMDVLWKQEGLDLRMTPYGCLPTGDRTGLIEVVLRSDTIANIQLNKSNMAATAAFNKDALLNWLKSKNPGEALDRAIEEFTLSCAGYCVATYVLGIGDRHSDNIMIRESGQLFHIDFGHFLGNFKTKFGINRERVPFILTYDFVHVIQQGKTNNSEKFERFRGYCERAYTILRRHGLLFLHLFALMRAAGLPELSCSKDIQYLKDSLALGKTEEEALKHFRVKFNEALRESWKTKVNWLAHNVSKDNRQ
- Assay info: Inhibition of recombinant human full length His-tagged PI3Kdelta expressed in baculovirus expression system using PIP2 as substrate by ADP-Glo reagent based assay
Would you kindly list IC50 for each of these compounds?
Numbers only, in nM.

[
  {
    "Smiles str": "COc1ncc(-c2nc3c(N4CCOCC4)ncnc3s2)cc1NS(=O)(=O)c1ccc(F)cc1F",
    "Data value": 1
  }
]

Could you now look at the following compound, please?
Exam item: // Input: COc1ncc(-c2cc3c(N4CCOCC4)ncnc3s2)cc1NS(=O)(=O)c1ccc(F)cc1F . Output its IC50 only.
Marked response: 3.9

---

- Assay info: Apparent permeability across apical to basolateral side in human Caco-2 cells
- Format: ADME, cell-based
Endpoint: Papp A→B (×10⁻⁶ cm/s)
One number for each entry, in ×10⁻⁶ cm/s.

Each compound below has a recorded value; state its Papp A→B.
1. COc1ncc(-c2cc3c(N4CCOCC4)ncnc3s2)cc1NS(=O)(=O)c1ccc(F)cc1F
2. COc1ncc(-c2nc3c(N4CCOCC4)ncnc3s2)cc1NS(=O)(=O)c1ccc(F)cc1F

Marked response:
1: 21.1; 2: 21.4

---

- Tested on: NCI-H292
- Assay info: Antiproliferative activity against human NCI-H292 cells assessed as reduction in cell viability incubated for 72 hrs measured after 4 hrs of MTT addition by MTT assay
- Assay type: functional, cell-based
Endpoint: pIC50
Numbers only, as −log10 of the molar value.

[
  {
    "Smiles str": "COc1ncc(-c2cc3c(N4CCOCC4)ncnc3s2)cc1NS(=O)(=O)c1ccc(F)cc1F",
    "Test target": "NCI-H292",
    "pIC50": 5.57
  }
]

Exam item: // Input: COc1ncc(-c2nc3c(N4CCOCC4)ncnc3s2)cc1NS(=O)(=O)c1ccc(F)cc1F . Output its pIC50 only.
Marked response: 6.49

---

- Test target: Phosphatidylinositol 4,5-bisphosphate 3-kinase catalytic subunit alpha isoform (Homo sapiens, UniProt P42336)
- Sequence (P42336 whole entry, canonical isoform): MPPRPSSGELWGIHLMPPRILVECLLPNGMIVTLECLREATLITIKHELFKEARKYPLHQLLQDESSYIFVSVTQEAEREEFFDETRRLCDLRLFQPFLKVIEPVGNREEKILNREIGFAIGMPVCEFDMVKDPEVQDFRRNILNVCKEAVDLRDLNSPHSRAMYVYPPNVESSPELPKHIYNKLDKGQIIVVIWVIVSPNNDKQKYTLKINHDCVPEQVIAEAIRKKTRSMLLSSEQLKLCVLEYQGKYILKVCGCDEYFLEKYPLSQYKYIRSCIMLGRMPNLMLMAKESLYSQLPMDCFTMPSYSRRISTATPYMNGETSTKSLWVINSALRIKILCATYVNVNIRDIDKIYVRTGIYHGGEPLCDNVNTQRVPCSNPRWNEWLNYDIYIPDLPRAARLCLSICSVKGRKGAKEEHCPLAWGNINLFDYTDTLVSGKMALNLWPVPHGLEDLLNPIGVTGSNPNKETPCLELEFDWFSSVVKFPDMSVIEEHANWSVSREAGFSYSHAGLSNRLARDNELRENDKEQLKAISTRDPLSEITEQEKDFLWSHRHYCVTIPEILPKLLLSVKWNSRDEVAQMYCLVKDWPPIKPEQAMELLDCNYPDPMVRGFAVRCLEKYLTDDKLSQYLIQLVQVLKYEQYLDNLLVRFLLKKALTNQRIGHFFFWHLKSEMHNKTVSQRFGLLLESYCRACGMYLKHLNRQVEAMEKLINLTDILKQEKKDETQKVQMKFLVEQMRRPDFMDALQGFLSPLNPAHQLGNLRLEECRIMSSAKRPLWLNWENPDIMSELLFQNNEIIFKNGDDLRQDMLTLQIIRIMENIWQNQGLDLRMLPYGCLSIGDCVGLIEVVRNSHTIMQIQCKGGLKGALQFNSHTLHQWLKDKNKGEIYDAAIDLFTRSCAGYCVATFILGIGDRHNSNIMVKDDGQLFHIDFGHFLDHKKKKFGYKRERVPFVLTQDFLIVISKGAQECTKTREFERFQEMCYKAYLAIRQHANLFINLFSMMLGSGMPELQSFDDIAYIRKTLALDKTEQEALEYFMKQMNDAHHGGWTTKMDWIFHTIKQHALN
- Assay info: Inhibition of recombinant human full length His-tagged PI3Kalpha expressed in baculovirus expression system using PIP2 as substrate by ADP-Glo reagent based assay
I'd be grateful if you could share measured IC50 for these entries.
Answers are plain numbers, in nM.

Guide cases for IC50, answers given:
[
  {
    "Molecule": "COc1ncc(-c2nc3c(N4CC(C)OC(C)C4)ncnc3s2)cc1NS(=O)(=O)c1ccc(F)cc1F (stereo not given)",
    "Value unit": "nM",
    "Data value": 11
  },
  {
    "Molecule": "COc1ncc(-c2nc3c(N4CCOC[C@@H]4C)ncnc3s2)cc1NS(=O)(=O)c1ccc(F)cc1F",
    "Value unit": "nM",
    "Data value": 2
  },
  {
    "Molecule": "COc1ncc(-c2cc3c(N4CC(OC)C4)ncnc3s2)cc1NS(=O)(=O)c1ccc(F)cc1F",
    "Value unit": "nM",
    "Data value": 7.2
  }
]

Below is a list of molecules. For each, state its recorded IC50.
1. COc1ncc(-c2nc3c(N4CCOCC4)ncnc3s2)cc1NS(=O)(=O)c1ccc(F)cc1F
2. COc1ncc(-c2cc3c(N4CC5CCCC5C4)ncnc3s2)cc1NS(=O)(=O)c1ccc(F)cc1F (stereo not given)

Marked response:
[1.7, 47]

---

Kindly supply the reported AUC(0-t) at 24 h values for the records listed here.
- Assay info: AUC (0 to t) in ICR mouse at 40 mg/kg, po measured upto 24 hrs by LC-MS/MS analysis
- Type: ADME, organism-based
- Parameters: route oral, dose 40 mg/kg, time <=24
- Cond: in vivo
Give bare numbers, in µg·h/mL.

[
  {
    "Smiles str": "COc1ncc(-c2cc3c(N4CCOCC4)ncnc3s2)cc1NS(=O)(=O)c1ccc(F)cc1F",
    "Value unit": "µg·h/mL",
    "AUC(0-t) at 24 h": 143
  }
]

// moving on: another record for AUC(0-t) at 24 h
Exam item: Give AUC(0-t) at 24 h for COc1ncc(-c2nc3c(N4CCOCC4)ncnc3s2)cc1NS(=O)(=O)c1ccc(F)cc1F
Marked response: 126

---

For each entry below, report its AUC(0-inf) value.
- Assay info: AUC (0 to infinity) in ICR mouse at 4 mg/kg, iv measured upto 24 hrs by LC-MS/MS analysis
- Assay type: ADME, organism-based
- Design: route intravenous, dose 4 mg/kg, time <=24
- Cond: in vivo

[
  {
    "Smiles str": "COc1ncc(-c2nc3c(N4CCOCC4)ncnc3s2)cc1NS(=O)(=O)c1ccc(F)cc1F",
    "AUC(0-inf)": "25300 ng·h/mL"
  }
]

// moving on: another record for AUC(0-inf)
Exam item: In one line, give reported AUC(0-inf) of the entry COc1ncc(-c2cc3c(N4CCOCC4)ncnc3s2)cc1NS(=O)(=O)c1ccc(F)cc1F .
Marked response: 14600 ng·h/mL

---

For each of the molecules below, state its pIC50.
- Test target: Phosphatidylinositol 4,5-bisphosphate 3-kinase catalytic subunit gamma isoform (Homo sapiens)
- Sequence (P48736 whole entry, the tested form may be a part, canonical isoform): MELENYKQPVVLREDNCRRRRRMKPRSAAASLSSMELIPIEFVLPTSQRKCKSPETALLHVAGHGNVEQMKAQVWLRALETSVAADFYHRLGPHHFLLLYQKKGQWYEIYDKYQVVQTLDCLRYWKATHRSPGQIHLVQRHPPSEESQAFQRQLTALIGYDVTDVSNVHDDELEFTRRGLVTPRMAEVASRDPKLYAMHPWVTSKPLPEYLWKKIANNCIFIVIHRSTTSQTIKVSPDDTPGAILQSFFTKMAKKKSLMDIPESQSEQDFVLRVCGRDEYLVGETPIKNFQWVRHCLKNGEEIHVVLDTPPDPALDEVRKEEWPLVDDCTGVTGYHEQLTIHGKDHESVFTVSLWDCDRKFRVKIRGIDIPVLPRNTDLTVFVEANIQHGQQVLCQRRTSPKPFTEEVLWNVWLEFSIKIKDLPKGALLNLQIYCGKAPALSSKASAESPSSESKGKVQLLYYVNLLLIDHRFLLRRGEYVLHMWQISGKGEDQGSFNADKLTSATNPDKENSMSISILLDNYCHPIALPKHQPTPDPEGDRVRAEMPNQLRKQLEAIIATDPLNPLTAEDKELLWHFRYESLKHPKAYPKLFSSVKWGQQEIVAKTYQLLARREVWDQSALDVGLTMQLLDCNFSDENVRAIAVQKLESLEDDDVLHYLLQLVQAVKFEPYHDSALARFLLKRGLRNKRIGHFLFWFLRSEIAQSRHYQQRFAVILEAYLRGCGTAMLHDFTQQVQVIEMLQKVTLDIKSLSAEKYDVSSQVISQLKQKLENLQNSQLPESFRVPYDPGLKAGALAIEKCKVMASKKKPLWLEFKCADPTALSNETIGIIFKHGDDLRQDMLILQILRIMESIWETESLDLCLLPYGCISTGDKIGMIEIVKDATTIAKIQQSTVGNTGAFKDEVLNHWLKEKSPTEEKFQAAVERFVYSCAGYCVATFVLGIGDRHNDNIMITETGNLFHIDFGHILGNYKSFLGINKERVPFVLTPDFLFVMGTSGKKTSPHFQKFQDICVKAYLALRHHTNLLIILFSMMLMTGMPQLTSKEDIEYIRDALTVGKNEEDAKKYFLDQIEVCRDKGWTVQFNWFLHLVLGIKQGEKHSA
- Assay info: Inhibition of recombinant human GST-tagged PI3Kgamma (468 to 1203 residues) expressed in insect expression system using PIP2 as substrate by ADP-Glo reagent based assay
Give bare numbers, as −log10 of the molar value.

Parameters: items (list). Returns: pIC50 for each item.
1. COc1ncc(-c2cc3c(N4CCOCC4)ncnc3s2)cc1NS(=O)(=O)c1ccc(F)cc1F
2. COc1ncc(-c2nc3c(N4CCOCC4)ncnc3s2)cc1NS(=O)(=O)c1ccc(F)cc1F

Marked response:
[7.92, 8.70]

---

Kindly supply the reported log10(IC50) values for the records listed here.
- Test target: Phosphatidylinositol 4,5-bisphosphate 3-kinase catalytic subunit alpha isoform (Homo sapiens, UniProt P42336)
- Assay info: Inhibition of recombinant human full length His-tagged PI3Kalpha expressed in baculovirus expression system using PIP2 as substrate by ADP-Glo reagent based assay
Remember, log10 of IC50, in nM.

[
  {
    "Molecule": "COc1ncc(-c2nc3c(N4CCOC[C@H]4C)ncnc3s2)cc1NS(=O)(=O)c1ccc(F)cc1F",
    "log10(IC50)": 0.28
  },
  {
    "Molecule": "COc1ncc(-c2cc3c(N4CCOC[C@@H]4C)ncnc3s2)cc1NS(=O)(=O)c1ccc(F)cc1F",
    "log10(IC50)": 1.04
  },
  {
    "Molecule": "COc1ncc(-c2cc3c(N4CC(C)OC(C)C4)ncnc3s2)cc1NS(=O)(=O)c1ccc(F)cc1F (racemic)",
    "log10(IC50)": 1.20
  },
  {
    "Molecule": "COc1ncc(-c2cc3c(N4CCN(C)CC4)ncnc3s2)cc1NS(=O)(=O)c1ccc(F)cc1F",
    "log10(IC50)": 2.04
  },
  {
    "Molecule": "COc1ncc(-c2cc3c(N4CCCC4)ncnc3s2)cc1NS(=O)(=O)c1ccc(F)cc1F",
    "log10(IC50)": 1.15
  }
]

Exam item: Look up and report measured log10(IC50) for this entry: COc1ncc(-c2cc3c(N4CCOC[C@H]4C)ncnc3s2)cc1NS(=O)(=O)c1ccc(F)cc1F
Marked response: 1.15
